# study target: cynomolgus monkey C17,20 lyase (Macaca fascicularis, UniProt Q2XVA1)
# Construct: microsomal preparations of the enzyme from testicular tissue; from tissue; host or cells: cynomolgus monkey testes, microsomes
# Sequence (Q2XVA1 whole entry): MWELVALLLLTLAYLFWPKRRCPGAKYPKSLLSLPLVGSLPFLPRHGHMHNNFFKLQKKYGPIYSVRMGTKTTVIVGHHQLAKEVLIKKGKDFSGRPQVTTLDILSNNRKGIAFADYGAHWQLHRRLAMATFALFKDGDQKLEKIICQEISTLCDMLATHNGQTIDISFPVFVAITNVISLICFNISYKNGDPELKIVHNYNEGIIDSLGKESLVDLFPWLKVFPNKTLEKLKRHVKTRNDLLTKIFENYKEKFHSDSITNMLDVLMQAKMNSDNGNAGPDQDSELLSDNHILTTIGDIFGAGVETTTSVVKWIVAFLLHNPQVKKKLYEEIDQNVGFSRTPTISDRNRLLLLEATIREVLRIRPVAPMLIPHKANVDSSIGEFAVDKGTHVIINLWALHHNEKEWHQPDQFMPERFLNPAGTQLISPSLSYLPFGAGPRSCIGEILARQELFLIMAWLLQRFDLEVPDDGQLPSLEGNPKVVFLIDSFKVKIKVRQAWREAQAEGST
# protocol summary: In vitro C17,20 lyase assay, testicular microsomes
# Type: biochemical
# recorded conditions: 1 µM, preincubation 40 min; mean of duplicates
Collected inhibition at 1 µM values appear next to each entry.
Quick note: give the figure in %, leave out the unit.

{"columns": ["molecule", "inhibition at 1 µM, %"],
 "data": [
  ["CC12C=CC(=O)N[C@@H]1CCC1C2CCC2(C)C1CC[C@@H]2OC1CC1 (some centres unmarked) [MDL 103,129]", 46.9],
  ["C[C@]12CC[C@H]3[C@@H](CC=C4NC(=O)CC[C@@]43C)[C@@H]1CC[C@@H]2NC1CC1 [MDL 105,831]", 53.8],
  ["CN1C(=O)CC[C@@]2(C)C1=CC[C@H]1[C@@H]3CC[C@H](OC4CC4)[C@@]3(C)CC[C@@H]12 (stereo in doubt) [MDL 104,313]", 39.9],
  ["C[C@]12CC[C@H]3[C@@H](CC=C4NC(=O)CC[C@@]43C)[C@@H]1CC[C@@H]2OC1CC1 (stereo in doubt) [MDL 103,496]", 62.2]
]}

Proceed to the following item.
# get_value(readout= inhibition at 1 µM, system= cynomolgus monkey C17,20 lyase (Macaca fascicularis, UniProt Q2XVA1)) for CC12CCC3C(CC[C@H]4NC(=O)CCC34C)C1CC[C@@H]2OC1CC1 (some centres unmarked) [MDL 103,432]
54.2
